FYI, the data here is from PubChem BioAssay (EPA / NIEHS).

Read-out: Macrophage colony-stimulating factor (MCSF), CSF1 (gene 1435)
procedure_text: BSK_hDFCGF_MCSF: BioMAP Diversity Plus: hDFCGF Assay for Macrophage colony-stimulating factor (MCSF) Biomarker Activity (AID 2283060)
condition_set: primary human foreskin fibroblasts; actives raise or lower the signal
Calls of active or inactive are those of the source. The calls were made as follows: active = hit-call score of the fitted dose curve at least 0.9, where 1 is the maximum; inactive = score below 0.9.
API: response.call in 1 (active), -1 (inactive)

Illustrative cases are given below, each with its answer.
Cc1ccc([N+](=O)[O-])cc1C
-1
Nc1ccc([N+](=O)[O-])cc1Cl
-1
CC(C)(C)c1ccc(O)cc1
-1
CSC(C)(C)C=NO
-1
CCN(CC)c1ccccc1
-1
O=P(Oc1ccccc1)(Oc1ccccc1)Oc1ccccc1
1

Shift focus to the following entry.
### Prompt Tell me the recorded outcome of this test for `Cc1c([N+](=O)[O-])cc2c(c1[N+](=O)[O-])C(C)(C)CC2(C)C` .
### Response 1

---

Read-out: Paternally Expressed 10 (PEG10), PEG10 (gene 23089)
procedure_text: LTEA_HepaRG_PEG10: Life Technologies and Expression Analysis (LTEA) Assay for Paternally Expressed 10 (PEG10) using HepaRG (AID 2283520)
condition_set: mRNA level, 48 h; actives raise or lower the signal
Activity calls are given as the source filed them. Rule for the calls: active = hit-call score of the fitted dose curve at least 0.9, where 1 is the maximum; inactive = score below 0.9.
parameter: outcome

CCOC(=O)c1ccccc1C(=O)OCC
inactive
O=P1(N(CCCl)CCCl)NCCCO1 (stereo not drawn)
inactive
OCC1CO1 (stereo not drawn)
inactive

---

Read-out: Interleukin-8 (IL8), CXCL8 (gene 3576)
procedure_text: BSK_SAg_IL8: BioMAP Diversity Plus: SAg Assay for Interleukin-8 (IL8) Biomarker Activity (AID 2283094)
condition_set: primary human HUVEC with PBMC; actives raise or lower the signal
Activity calls are given as the source filed them. Rule for the calls: active = hit-call score of the fitted dose curve at least 0.9, where 1 is the maximum; inactive = score below 0.9.
API: response.call in active, inactive

Illustrative cases are given below, each with its answer.
O=P1(N(CCCl)CCCl)NCCCO1 (centres undefined)
inactive
Nc1ccc2ccccc2c1
inactive
O=c1ssc(Cl)c1Cl
active
CCOP(=S)(S)OCC
inactive

### Prompt Tell me the recorded outcome of this test for `CCCCc1ccccc1` .
### Response inactive

### Prompt Tell me the recorded outcome of this test for `Cc1c([N+](=O)[O-])cc2c(c1[N+](=O)[O-])C(C)(C)CC2(C)C` .
### Response inactive

### Prompt Tell me the recorded outcome of this test for `Nc1ccc(Cl)cc1` .
### Response inactive

### Prompt Tell me the recorded outcome of this test for `Nc1ccc([N+](=O)[O-])cc1Cl` .
### Response inactive

### Prompt Tell me the recorded outcome of this test for O=C(O)C1C(C(=O)O)C2(Cl)C(Cl)=C(Cl)C1(Cl)C2(Cl)Cl (centres undefined) .
### Response inactive

### Prompt Tell me the recorded outcome of this test for COC(=O)C(F)(F)C(F)(F)OC(F)(C(F)(F)F)C(F)(F)OC(F)=C(F)F (centres undefined) .
### Response inactive

### Prompt Tell me the recorded outcome of this test for CC(O)C(F)(F)C(F)(F)F (centres undefined) .
### Response inactive

### Prompt Tell me the recorded outcome of this test for `Cc1ccc2c(c1N)C(=O)c1ccccc1C2=O` .
### Response inactive

### Prompt Tell me the recorded outcome of this test for `Cc1cccc(N)c1` .
### Response inactive

### Prompt Tell me the recorded outcome of this test for `CCCCN(CCCC)N=O` .
### Response inactive
